Target: BACE2 (Rattus norvegicus, UniProt Q6IE75)
Construct: endogenous cellular BACE2 in the Ins1e rat cell line; endogenous in cells
Assay: Assay for BACE inhibition by measuring cellular TMEM27 cleavage (INS-TMEM27 cells, ELISA of shed TMEM27)
Conditions: inhibition of human TMEM27 cleavage by endogenous cellular BACE2 in Ins1e rat cell line; ELISA of culture medium
quantityMeasured: pIC50
# log scale: pIC50 equals minus log10 of the concentration in mol/L

Observed pIC50 on BACE2 (Rattus norvegicus, UniProt Q6IE75) for `Cc1conc1C(=O)Nc1ccc(F)c([C@]2(C)CCOC(N)=N2)c1` , please.
6.98

Observed pIC50 on BACE2 (Rattus norvegicus, UniProt Q6IE75) for `Cc1cc(Cl)cnc1C(=O)Nc1ccc(F)c([C@@]2(C)N=C(N)OCC23CC3)c1` , please.
8.29

Observed pIC50 on BACE2 (Rattus norvegicus, UniProt Q6IE75) for `C[C@@]1(c2cc(NC(=O)c3ccc(OC(F)F)cn3)ccc2F)CCOC(N)=N1` , please.
6.32

Observed pIC50 on BACE2 (Rattus norvegicus, UniProt Q6IE75) for `Cc1nc(C(=O)Nc2ccc(F)c([C@]3(C)CCOC(N)=N3)c2)co1` , please.
7.72

Observed pIC50 on BACE2 (Rattus norvegicus, UniProt Q6IE75) for C[C@@]1(c2cc(NC(=O)C(F)C(F)(F)F)ccc2F)CCOC(N)=N1 (stereo partly drawn) , please.
6.40

Observed pIC50 on BACE2 (Rattus norvegicus, UniProt Q6IE75) for `C[C@]1(c2cc(NC(=O)c3ncccc3Cl)ccc2F)N=C(N)OCC12CC2` , please.
7.44

---

Listing: pIC50 of selected molecules
Target: BACE2 (Rattus norvegicus)
Construct: endogenous cellular BACE2 in the Ins1e rat cell line; endogenous in cells
Sequence (Q6IE75 63-514): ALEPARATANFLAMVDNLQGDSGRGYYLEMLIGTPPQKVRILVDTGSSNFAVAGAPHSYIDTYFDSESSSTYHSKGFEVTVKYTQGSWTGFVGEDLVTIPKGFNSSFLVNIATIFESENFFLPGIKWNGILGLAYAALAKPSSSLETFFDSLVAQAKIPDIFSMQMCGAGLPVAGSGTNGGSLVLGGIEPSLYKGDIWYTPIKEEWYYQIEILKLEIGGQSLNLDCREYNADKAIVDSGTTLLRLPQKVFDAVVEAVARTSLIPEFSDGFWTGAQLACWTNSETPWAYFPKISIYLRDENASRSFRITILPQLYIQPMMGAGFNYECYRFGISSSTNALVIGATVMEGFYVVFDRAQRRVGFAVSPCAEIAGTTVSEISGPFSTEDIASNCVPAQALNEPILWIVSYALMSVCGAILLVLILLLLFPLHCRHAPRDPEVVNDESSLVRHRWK
Test: Assay for BACE inhibition by measuring cellular TMEM27 cleavage (INS-TMEM27 cells, ELISA of shed TMEM27)
Settings: inhibition of human TMEM27 cleavage by endogenous cellular BACE2 in Ins1e rat cell line; ELISA of culture medium
# log scale: pIC50 equals minus log10 of the concentration in mol/L

> print(dat)
                            smilesstructure  observedresult
1  C[C@@]1(c2cc(NC(=O)c3ccc(F)cn3)ccc2F)CCOC(N)=N1            8.22

Observed pIC50 on BACE2 (Rattus norvegicus) for `Cc1ccc(C(=O)Nc2ccc(F)c([C@]3(C)CCOC(N)=N3)c2)s1` , please.
7.96

Observed pIC50 on BACE2 (Rattus norvegicus) for `Cn1cc(Cl)c(C(=O)Nc2ccc(F)c([C@@]3(C)N=C(N)OCC34CC4)c2)n1` , please.
8.22

Observed pIC50 on BACE2 (Rattus norvegicus) for `C[C@@]1(c2cc(NC(=O)c3n[nH]cc3Cl)ccc2F)CCOC(N)=N1` , please.
6.33

Observed pIC50 on BACE2 (Rattus norvegicus) for `C[C@]1(c2cc(NC(=O)c3ncccc3C(F)(F)F)ccc2F)N=C(N)OCC12CC2` , please.
7.14

Observed pIC50 on BACE2 (Rattus norvegicus) for `C[C@@]1(c2cc(NC(=O)c3ccc(F)s3)ccc2F)CCOC(N)=N1` , please.
6.47

---

Target: BACE2 (Rattus norvegicus)
Construct: endogenous cellular BACE2 in the Ins1e rat cell line; endogenous in cells
Test: Assay for BACE inhibition by measuring cellular TMEM27 cleavage (INS-TMEM27 cells, ELISA of shed TMEM27)
Conditions: inhibition of human TMEM27 cleavage by endogenous cellular BACE2 in Ins1e rat cell line; ELISA of culture medium
quantityMeasured: IC50 (nM)
Please respond with the number in nM and leave the unit unwritten.

Check out these entries, answers already filled in.
> print(dat)
                                   molecule  quantitymeasured  observedresult
1  C[C@]1(c2cc(NC(=O)C3(C(F)(F)F)CC3)ccc2F)N=C(N)OCC12CC2 [Example 54]              IC50             810
2  C[C@@]1(c2cc(NC(=O)CC(F)(F)F)ccc2F)CCOC(N)=N1 [Example 59]              IC50             830
3  Cn1ccc(C(=O)Nc2ccc(F)c([C@]3(C)CCOC(N)=N3)c2)n1 [Example 29]              IC50               3
4  C[C@@]1(c2cc(NC(=O)c3cc4ccccc4s3)ccc2F)CCOC(N)=N1 [Example 13]              IC50              52
5  CC1(C(=O)Nc2ccc(F)c([C@]3(C)CCOC(N)=N3)c2)COC1 [Example 62]              IC50            9130

Could you share which IC50 value was measured for C[C@@]1(c2cc(NC(=O)c3cccc(Cl)n3)ccc2F)CCOC(N)=N1 [Example 32] ?
4

Could you share which IC50 value was measured for NC1=N[C@@]2(c3cc(NC(=O)c4ccc(Cl)cn4)ccc3F)COC[C@H]2CO1 [Example 65] ?
60

Could you share which IC50 value was measured for C[C@]1(c2cc(NC(=O)c3c(F)cccc3F)ccc2F)N=C(N)OCC12CC2 [Example 47] ?
620

---

Target: BACE2 (Rattus norvegicus, UniProt Q6IE75)
Construct: endogenous cellular BACE2 in the Ins1e rat cell line; endogenous in cells
Sequence (Q6IE75 63-514): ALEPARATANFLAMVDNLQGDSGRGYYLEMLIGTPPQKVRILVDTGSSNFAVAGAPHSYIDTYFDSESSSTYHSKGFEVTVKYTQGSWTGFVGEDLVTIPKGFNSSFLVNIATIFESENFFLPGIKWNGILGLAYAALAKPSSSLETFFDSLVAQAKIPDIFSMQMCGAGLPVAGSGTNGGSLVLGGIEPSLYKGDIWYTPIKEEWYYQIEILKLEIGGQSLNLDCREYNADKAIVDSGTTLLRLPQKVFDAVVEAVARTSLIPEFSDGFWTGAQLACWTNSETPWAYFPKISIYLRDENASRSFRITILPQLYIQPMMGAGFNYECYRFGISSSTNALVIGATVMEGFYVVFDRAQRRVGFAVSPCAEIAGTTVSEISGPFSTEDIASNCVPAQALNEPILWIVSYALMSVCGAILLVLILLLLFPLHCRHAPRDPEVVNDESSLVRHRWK
Assay: Assay for BACE inhibition by measuring cellular TMEM27 cleavage (INS-TMEM27 cells, ELISA of shed TMEM27)
Settings: inhibition of human TMEM27 cleavage by endogenous cellular BACE2 in Ins1e rat cell line; ELISA of culture medium
Listing: IC50 of selected molecules
Please respond with the number in nM and leave the unit unwritten.

Check out these entries, answers already filled in.
> print(dat)
                            smilesstructure                                       tgt  quantitymeasured  unitstext  observedresult
1  C[C@]1(c2cc(NC(=O)c3ncc(C(F)(F)F)cc3Cl)ccc2F)N=C(N)OCC12CC2  BACE2 (Rattus norvegicus, UniProt Q6IE75)              IC50         nM             190
2  C[C@]1(c2cc(NC(=O)c3ccc(F)cn3)ccc2F)N=C(N)OCC12CC2  BACE2 (Rattus norvegicus, UniProt Q6IE75)              IC50         nM              39
3  Cc1c(C(=O)Nc2ccc(F)c([C@@]3(C)N=C(N)OCC34CC4)c2)noc1Cl  BACE2 (Rattus norvegicus, UniProt Q6IE75)              IC50         nM            6410

Would you kindly look at the next entry?
Could you share which IC50 value was measured for `C[C@@]1(c2cc(NC(=O)c3nccc4ccsc34)ccc2F)CCOC(N)=N1` ?
28
